SYSTEM_UNDER_TEST: bovine IgG
METHOD_DESCRIPTION: ELISA, coated antigen, E. coli supernatant
TEST_READOUT: absorbance at 450 nm (A450)
The reply should contain only the number, in A450.

Known results for binders:
SVG06 (VHH) VHH: QVQLQESGGALVQPGGSLRLSCAASGFPFSAYDMTWVRQAPGQGLEWVSTIHKSGGITTYADSVKGRFTISRDNAKNTLYLQMNNLESEDTAVYYCAKALRAHNSDYVGRNALGSWGEGTLVTVSS = 0.172
SVG19 (VHH, not shown: large carriers) VHH: QVQLQQSGGGLVQPGGSLRLSCAASGFTFSSYAMSWVRQAPGKGLEWVSAINSGGGSTSYADSVKGRFTISRDNAKNTLYLQMNSLKPEDTAVYYCAKDFDPWGVGTGGYDYWGQGTQVTVSS = 0.453
SVG03 (VHH, not shown: large carriers) VHH: QVQLQESGGGLVQAGGSLRLSCAASGRTFSNYVMGWFRQAPGKEREFVSAISWNGVSTFYADSVKGRFTISRDNAKNTVYLQMNSLKPEDTAVYYCAADERFVVRYNYWGQGTQVTVSS = 0.061

As a next step, examine the binder that follows.
[ask] Fill blank: measured absorbance at 450 nm of the binder SVG23 (VHH, not shown: large carriers) VHH: QVQLQESGGGLVQAGGSLRLSCAASGRAFGSYTMNWFRQAPGKERDFVAGIMSSGMNTWYADSVKGRFTISRDNAKNTVYLQMNSLKPEDTAVYYCASRPRSTMTSGRYLYDYWGQGTQVTVSS is ____.
[reply] 0.062

Each recorded value in this set is attributed to patent US20240376185A1.
